// 8OG:A repair function score lookup, one value per entry
B1: library; numbered along this chain (parent)
chain: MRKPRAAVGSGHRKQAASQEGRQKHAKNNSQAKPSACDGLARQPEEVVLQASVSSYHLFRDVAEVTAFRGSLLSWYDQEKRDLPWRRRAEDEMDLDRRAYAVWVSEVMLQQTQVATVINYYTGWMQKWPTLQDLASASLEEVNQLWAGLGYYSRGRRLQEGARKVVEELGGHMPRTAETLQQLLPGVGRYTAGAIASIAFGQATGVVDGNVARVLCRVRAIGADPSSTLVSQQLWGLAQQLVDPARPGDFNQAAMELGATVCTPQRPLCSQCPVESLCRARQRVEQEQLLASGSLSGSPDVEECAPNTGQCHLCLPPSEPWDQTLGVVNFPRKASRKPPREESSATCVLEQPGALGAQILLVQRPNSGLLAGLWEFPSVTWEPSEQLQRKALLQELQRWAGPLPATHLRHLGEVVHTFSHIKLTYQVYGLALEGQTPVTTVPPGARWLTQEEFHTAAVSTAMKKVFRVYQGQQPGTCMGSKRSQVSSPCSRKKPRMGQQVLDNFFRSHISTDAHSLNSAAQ

# Variants of: B1
# measurement_protocol: 8OG:A repair function score (normalized; synonymous = 0, nonsense = -1) (normalized log-likelihood score); higher = more repair activity (WT-like);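 note: cells sorted at 72 h after reporter transfection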
# condition_info: with 8OG:A DNA repair reporter (GFP) in HEK-293 MUTYH KO cells
The reply should be a number, written without any unit.

Sample answers from the record:
C262W: -0.941
A199P: -1.07
A280Q: -0.761
W75L: -2.04
S136W: -0.154
A445E: -0.567

Determine its reported 8OG:A repair function score: V53M
-0.112

Determine its reported 8OG:A repair function score: A245M
-0.146
